- Tested on: HAP1 MTAP-deleted cell line
- ASSAY REMARKS: Viability assay, MTAP-deleted cell line
- Assay type: cell-based
- CONDITION: Homo sapiens, HAP1, viability assay, MTAP-deleted cell line; read-out: HAP1 MTAP deleted viability
MEASUREMENT KIND: IC50

Looking up C[C@H]1CC[C@H](c2cccc(Cl)c2)N(C(=O)C(=O)Nc2cncc(C(N)=O)c2)C1 (single isomer, unassigned) , I found its IC50 recorded as 1 to 10 µM

Sure, the documented IC50 for Cc1ccc([C@@H]2CC[C@@H](C)CN2C(=O)C(=O)Nc2cncc(C(N)=O)c2)cc1F (racemic) is 1 to 10 µM

Documented IC50 of Cc1cc(NC(=O)C(=O)N2C[C@H](C)CC[C@H]2c2ccsc2)cnc1N (racemic) : 1 to 10 µM

The compound listed as C[C@@H]1CC[C@@H](c2ccc(Cl)c(C(F)(F)F)c2)N(C(=O)C(=O)Nc2cncc(C(N)=O)c2)C1 (racemic) shows IC50 equal to 1 to 10 µM

The compound CCc1cc(NC(=O)C(=O)N2C[C@@H](C)CC[C@@H]2c2ccc(N3CCN(C)CC3)cc2)cnc1N (racemic) showed IC50 equal to < 1 µM

In plain terms, COc1ncc(NC(=O)C(=O)N2C[C@H](C)CC[C@H]2c2cc3[nH]ncc3s2)cc1C(N)=O (single isomer, unassigned) has a documented IC50 of > 10 µM

---

Please respond with reported pIC50 for every item in the list.
- STUDY TARGET: PRMT5 (Homo sapiens)
- Construct: purchased Viva (custom protein)
- Sequence (O14744 whole entry): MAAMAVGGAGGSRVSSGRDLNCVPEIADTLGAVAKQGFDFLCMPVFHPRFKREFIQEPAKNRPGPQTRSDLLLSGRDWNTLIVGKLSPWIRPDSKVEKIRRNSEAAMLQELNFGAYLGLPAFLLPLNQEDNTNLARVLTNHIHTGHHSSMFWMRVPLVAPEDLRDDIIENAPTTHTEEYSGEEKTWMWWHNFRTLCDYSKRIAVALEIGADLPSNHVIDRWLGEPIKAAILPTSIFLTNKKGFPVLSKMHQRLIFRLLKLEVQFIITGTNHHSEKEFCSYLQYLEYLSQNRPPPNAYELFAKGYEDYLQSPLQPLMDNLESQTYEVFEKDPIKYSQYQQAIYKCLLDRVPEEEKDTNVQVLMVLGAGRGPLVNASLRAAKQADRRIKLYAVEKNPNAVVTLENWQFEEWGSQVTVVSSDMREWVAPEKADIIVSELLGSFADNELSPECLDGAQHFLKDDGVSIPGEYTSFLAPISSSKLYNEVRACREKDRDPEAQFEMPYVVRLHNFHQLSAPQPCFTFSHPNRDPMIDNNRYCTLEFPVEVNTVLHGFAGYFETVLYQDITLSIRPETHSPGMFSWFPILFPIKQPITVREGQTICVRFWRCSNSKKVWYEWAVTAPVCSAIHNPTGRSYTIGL
- Sequence (Q9BQA1 whole entry partner): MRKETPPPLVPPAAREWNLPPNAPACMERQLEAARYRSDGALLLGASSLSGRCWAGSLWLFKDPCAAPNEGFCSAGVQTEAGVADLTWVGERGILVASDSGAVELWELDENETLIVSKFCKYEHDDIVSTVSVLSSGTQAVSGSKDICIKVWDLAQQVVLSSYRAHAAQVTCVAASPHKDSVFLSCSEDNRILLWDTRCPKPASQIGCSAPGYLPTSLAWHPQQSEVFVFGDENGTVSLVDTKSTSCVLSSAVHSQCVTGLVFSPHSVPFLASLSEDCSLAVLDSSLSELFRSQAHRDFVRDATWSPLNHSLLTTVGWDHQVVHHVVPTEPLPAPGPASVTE
- ASSAY REMARKS: PRMT5 biochemical IC50 assay with MTA as cofactor
- CONDITION: PRMT5, MTA as cofactor; read-out: MTA IC50
pIC50: −log10 of the molar value.

Field pIC50 (system: PRMT5 (Homo sapiens)) for entry Cc1cc(NC(=O)C(=O)N2C[C@H](C)CC[C@H]2c2ccc(C(C)O)cc2)cnc1N (mixture of isomers) = 6.30 to 7.30

Entry Cc1cc(NC(=O)C(=O)N2C[C@H](C)CC[C@H]2c2ccc(N3CCN(C)CC3)cc2)cnc1N (racemic) [Compound 1105] , PRMT5 (Homo sapiens) data, pIC50 value: 6.30 to 7.30

Tested on PRMT5 (Homo sapiens), the item COc1ncc(NC(=O)C(=O)N2CCCCC2C2CCCCC2)cc1C(N)=O (single isomer, unassigned) [Compound 317] showed pIC50 equal to < 6.30

// compound `COc1cc(NC(=O)C(=O)N2C[C@@H](C)CC[C@@H]2c2ccc(F)cc2)cnc1N` , assay PRMT5 (Homo sapiens), pIC50 value: > 7.30

Measured pIC50 (PRMT5 (Homo sapiens)), entry Cc1cc(NC(=O)C(=O)N2C[C@H](C)CC[C@H]2c2ccc3sc(N)nc3c2)cnc1C (racemic) : 6.30 to 7.30

The recorded pIC50 with PRMT5 (Homo sapiens) for `CCc1cc(NC(=O)C(=O)N2C[C@@H](C)CC[C@@H]2c2ccc3sc(-c4ccnn4C)nc3c2)cnc1N` was > 7.30

Value sought: pIC50, system PRMT5 (Homo sapiens), item COCc1nc2cc([C@H]3CC[C@H](C)CN3C(=O)C(=O)Nc3cnc(N)c(C)c3)ccc2s1 (single isomer, unassigned) . Result: > 7.30
